test system: SF-539 CNS; assay: NCI tumour cell line growth inhibition, 48 h
readout.kind: TGI

Data point: O=C(O)c1nc2ccc(C(F)(F)F)cc2[nH]c1=O ; TGI = > 100 µM

Data point: Nc1nc2c(c3cnccc13)C(c1ccc(Cl)c(Cl)c1)Cc1cnccc1-2 (centres undefined) ; TGI = 4.29 µM

Data point: COC(=O)CCC(NC(=S)N/N=C/c1cccs1)C(=O)OC (centres undefined) ; TGI = > 100 µM

Data point: CC(C)(CO)CNC(=O)c1ccc2[nH]c(O)c(N=Nc3ccc(S(N)(=O)=O)cc3)c2c1 ; TGI = > 25 µM

Data point: CCOC(=O)c1c(N2CCCC2)[nH]c(=O)c(C(c2ccc(OC)cc2)c2c(O)c(C(=O)OCC)c(N3CCCC3)[nH]c2=O)c1O ; TGI = > 100 µM

Data point: O=C(OCc1ccc2c(Br)cc(Br)c(O)c2n1)c1cc2ccccc2[nH]1 ; TGI = 2.17 µM

Data point: Cn1c2ccccc2c2ccc3c(c21)C(=O)c1ccc2c4ccccc4n(C)c2c1C3=O ; TGI = > 100 µM

Data point: FC(F)(F)Oc1cccc(-c2cc(NCCCCCCNc3cc(-c4cccc(OC(F)(F)F)c4)nc4ccc(N5CCCC5)cc34)c3cc(N4CCCC4)ccc3n2)c1 ; TGI = 3.33 µM

Data point: COc1cc(C)c(CC/C(C)=C/Cc2cc(O)ccc2O)c(C)c1C ; TGI = > 25 µM
